All values here come from PubChem BioAssay AID588690.

Molecular target: Protein FosB (Mus musculus)
Experiment: activators of mouse delta FosB DNA binding, confirmation, biochemical, fluorescence polarization, TAMRA-CDK5 oligo, cherry-picked samples (AID 588690);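 also: higher polarization means more probe DNA bound by delta FosB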
Conditions: purified delta FosB, at 24.9 µM, active compounds read high, normalised: neutral wells 0, positive control 100
Out of some 2,400 compounds screened, fewer than 10 were called active. Roughly 1% stayed inconclusive and do not appear here. The list is a sample of the results.
Category | rule: reported activation within range, see lowest (below 3%), middle (3% to below 5%), highest (5% or more)

[[record]]
compound = "O=C(Cn1cnc2c(nnn2Cc2ccc(F)cc2)c1=O)NCc1ccc2c(c1)OCO2"
assigned_class = "middle"

[[record]]
compound = "CCCOc1ccc(C(=O)C(CCC(CNCC)C(=O)c2ccc(OCCC)cc2)CNCC)cc1 (stereo not given)"
assigned_class = "middle"

[[record]]
compound = "COc1ccc(C(=O)Nc2c(N)nc(SCC(=O)Nc3ccc(C(C)=O)cc3)[nH]c2=O)cc1"
assigned_class = "highest"

[[record]]
compound = "C=CCn1c(=NC(=O)c2ccc(S(=O)(=O)N3CCCC3)cc2)sc2cc(NC(C)=O)ccc21"
assigned_class = "lowest"

[[record]]
compound = "Cc1ccc(-c2cc(C(=O)N/N=C/C=C/c3ccccc3)n[nH]2)o1"
assigned_class = "lowest"

[[record]]
compound = "O=C(CN1C(=O)c2cccc3cccc1c23)Nc1ccccc1"
assigned_class = "highest"

[[record]]
compound = "COc1ccc(-c2cc(=O)c3c(O)cc(O[C@@H]4O[C@H](CO[C@@H]5O[C@@H](C)[C@H](O)[C@@H](O)[C@H]5O)[C@@H](O)[C@H](O)[C@H]4O)cc3o2)cc1O"
assigned_class = "lowest"

[[record]]
compound = "COc1ccc(/C=C/C(=O)Nc2ccc(C34CC5CC(CC(O)(C5)C3)C4)cc2)cc1OC"
assigned_class = "highest"

[[record]]
compound = "N#Cc1c(N)nc2c3c(sc(=N)c2c1N)NC(=O)CC3c1ccccc1Cl (stereo not given)"
assigned_class = "middle"


====

Target: Protein FosB (Mus musculus) (UniProt P13346)
Sequence (P13346 whole entry, looked up): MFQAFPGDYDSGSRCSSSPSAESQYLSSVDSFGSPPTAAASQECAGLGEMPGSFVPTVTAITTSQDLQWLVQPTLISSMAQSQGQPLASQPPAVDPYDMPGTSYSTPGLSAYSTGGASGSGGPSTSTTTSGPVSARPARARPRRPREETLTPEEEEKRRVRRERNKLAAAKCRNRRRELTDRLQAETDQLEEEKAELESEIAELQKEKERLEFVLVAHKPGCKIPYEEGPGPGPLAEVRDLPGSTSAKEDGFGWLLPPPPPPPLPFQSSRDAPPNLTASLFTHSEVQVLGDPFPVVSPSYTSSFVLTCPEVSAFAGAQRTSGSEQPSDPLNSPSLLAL
Test: activators of mouse delta FosB DNA binding, confirmation, biochemical, fluorescence polarization, TAMRA-CDK5 oligo, cherry-picked samples (AID 588690);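 also: higher polarization means more probe DNA bound by delta FosB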
Details: purified delta FosB, at 24.9 µM, active compounds read high, normalised: neutral wells 0, positive control 100
Fewer than 10 of roughly 2,400 compounds were called active. Inconclusive results (about 1%) are left out. A selection follows.
Recorded activation for the following compounds
endpoint: activation (%)

[[record]]
compound = "CCOc1ccc(-n2c(SCC(=O)Nc3ccc(OC)cc3)nc3sc4c(c3c2=O)CCN(C)C4)cc1"
observed_result = -0.551

[[record]]
compound = "O=C(Nc1cccnc1Cl)c1cc(-c2ccccc2O)on1"
observed_result = -0.741

[[record]]
compound = "O=C(COc1coc(CN2CCN(c3ccccc3F)CC2)cc1=O)N1CCc2ccccc21"
observed_result = -0.869

[[record]]
compound = "CCCCn1c(N)c(N(CCC(C)C)C(=O)COC(=O)c2ccc(CC)cc2)c(=O)[nH]c1=O"
observed_result = 0.0735

[[record]]
compound = "COc1ccc(NS(=O)(=O)c2ccc(NC(=O)c3ccc(N(C)S(C)(=O)=O)cc3)cc2)cc1"
observed_result = -1.03

[[record]]
compound = "Cc1ccc(NC(=O)COc2ccc(/C=C3/NC(=O)NC3=O)cc2)cc1"
observed_result = 2.85

[[record]]
compound = "CC(=O)Nc1ccc(C(=O)CSc2nnc(Cc3ccccc3)o2)cc1"
observed_result = 1.84

[[record]]
compound = "Cc1cccc(C(=O)Nc2ccccc2-c2nnn(CC(=O)Nc3ccc4c(c3)OCCO4)n2)c1"
observed_result = -0.9

[[record]]
compound = "CC(=O)Nc1ccc(NC(=O)C(NS(=O)(=O)c2ccc3c(c2)OCCO3)C(C)C)cc1 (stereo not given)"
observed_result = 2.35

[[record]]
compound = "CC(=O)Nc1ccc(S(=O)(=O)NCC(=O)OCc2cc(=O)oc3ccc4ccccc4c23)cc1"
observed_result = -1.24


====

Target: Protein FosB (Mus musculus) (UniProt P13346)
Assay: activators of mouse delta FosB DNA binding, confirmation, biochemical, fluorescence polarization, TAMRA-CDK5 oligo, cherry-picked samples (AID 588690);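 also: higher polarization means more probe DNA bound by delta FosB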
Conditions: purified delta FosB, at 24.9 µM, active compounds read high, normalised: neutral wells 0, positive control 100
Fewer than 10 of roughly 2,400 compounds were called active. Not shown: some 1% with an inconclusive outcome. A selection follows.
endpoint: activation

[[record]]
smiles_repr = "COc1ccc(C(=O)n2nc(-c3ccc(Cl)cc3)nc2N)cc1OC"
observed_result = "0.58% (inactive)"

[[record]]
smiles_repr = "CCOC(=O)C1=C(O)/C(=C/c2ccc(OCC(=O)Nc3ccc(C)cc3)cc2)N=C1C"
observed_result = "3.13% (inactive)"

[[record]]
smiles_repr = "O=C(N/N=C/c1ccco1)c1ccc(NC(=O)C2CC2)cc1"
observed_result = "-0.767% (inactive)"

[[record]]
smiles_repr = "NC(=O)NC(=O)CSc1nc2cc([N+](=O)[O-])ccc2n1-c1cccc(C(F)(F)F)c1"
observed_result = "3.51% (inactive)"

[[record]]
smiles_repr = "COc1ccccc1CNC(=O)Cn1c(=O)oc2cc(Cl)ccc21"
observed_result = "5.98% (inactive)"


====

Form field: activation (one value per entry).
Biological target: Protein FosB (Mus musculus) (UniProt P13346)
Experiment: activators of mouse delta FosB DNA binding, confirmation, biochemical, fluorescence polarization, TAMRA-CDK5 oligo, cherry-picked samples (AID 588690);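 also: higher polarization means more probe DNA bound by delta FosB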
Details: purified delta FosB, at 24.9 µM, active compounds read high, normalised: neutral wells 0, positive control 100
The whole screen tested about 2,400 compounds, of which fewer than 10 were called active. Not shown: some 1% with an inconclusive outcome. Only a sample is shown.
endpoint: activation (%)

[[record]]
compound = "COc1ccc(Nc2nc(NCc3ccco3)nc(N/N=C/c3ccccc3Cl)n2)cc1"
u = "%"
observed_result = 2.55

[[record]]
compound = "O=C(Cn1nnc(-c2ccc3c(c2)OCO3)n1)NCc1ccco1"
u = "%"
observed_result = -2.21

[[record]]
compound = "C#CCOCCOCCOCCNc1nc(N2CCN(C(=O)C([C@@H](C)O)n3cc([C@@H](N)CCCCN)nn3)CC2)nc(N2CCN(C(=O)[C@H](CCCCN)n3cc(CN)nn3)CC2)n1 (some centres undefined)"
u = "%"
observed_result = -0.353

[[record]]
compound = "Cc1cc(NC(=O)CSc2nc3cc(Cl)ccc3c(=O)n2Cc2ccco2)no1"
u = "%"
observed_result = 3.74


====

In this section, each of the compounds is paired with its reported activation.
Target: Protein FosB (Mus musculus)
Assay: activators of mouse delta FosB DNA binding, confirmation, biochemical, fluorescence polarization, TAMRA-CDK5 oligo, cherry-picked samples (AID 588690);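 also: higher polarization means more probe DNA bound by delta FosB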
Settings: purified delta FosB, at 24.9 µM, active compounds read high, normalised: neutral wells 0, positive control 100
Screen size: about 2,400 compounds; fewer than 10 were called active. Another 1% or so got no clear call; they are omitted. The list is a sample of the results.
endpoint: activation (%)

[[record]]
compound = "O=C1c2cccc3cccc(c23)C(=O)N1c1cccc(O)c1"
endpoint = "activation"
observed_result = 3.04

[[record]]
compound = "Cc1ccc(S(=O)(=O)N2CCC(Oc3ccc(-n4cnnn4)cc3)CC2)cc1"
endpoint = "activation"
observed_result = -4.91

[[record]]
compound = "CN(C)CCN(C(=O)CN1C(=O)c2ccccc2C1=O)c1nc2cc3c(cc2s1)OCCO3"
endpoint = "activation"
observed_result = 0.813

[[record]]
compound = "O=C(Cc1ccc(-n2c(=O)c3sccc3n(Cc3ccc(F)cc3)c2=O)cc1)NCc1ccco1"
endpoint = "activation"
observed_result = 7.21

[[record]]
compound = "Nc1nc(SCC(=O)Nc2cc(C(F)(F)F)ccc2Cl)[nH]c(=O)c1NC(=O)c1ccco1"
endpoint = "activation"
observed_result = -8.35

[[record]]
compound = "O=C(Nc1ccc(Br)cc1)c1cc(S(=O)(=O)Nc2ccccn2)ccc1Cl"
endpoint = "activation"
observed_result = 0.723

[[record]]
compound = "O=C(Nc1ccccc1)Nc1nnc(COc2ccccc2F)s1"
endpoint = "activation"
observed_result = -9.71

[[record]]
compound = "Nc1ccc(C(=O)OCC(=O)NC2CCCc3ccccc32)cc1[N+](=O)[O-] (stereo not given)"
endpoint = "activation"
observed_result = 0.712

[[record]]
compound = "O=C(Nc1ccccc1)c1ccc(NC(=O)c2cccs2)cc1"
endpoint = "activation"
observed_result = 6.7

[[record]]
compound = "Cc1ccccc1NC(=O)c1ccc(COc2ccc3c(C)cc(=O)oc3c2)cc1"
endpoint = "activation"
observed_result = 1.47

[[record]]
compound = "CN(CC(=O)Nc1ccc(Cl)cc1)C(=O)CNC(=O)c1ccc2ccccc2c1"
endpoint = "activation"
observed_result = 6.82

[[record]]
compound = "CS(=O)(=O)c1ccc(-c2nnn(CC(=O)Nc3ccc4c(c3)OCCO4)n2)cc1"
endpoint = "activation"
observed_result = 2.96

[[record]]
compound = "O=C(Cc1nc2ccccc2[nH]c1=O)c1ccc(Cl)cc1"
endpoint = "activation"
observed_result = 3.64

[[record]]
compound = "Cc1ccc(C(=O)NNC(=O)c2cc3cc4ccccc4nc3s2)cc1"
endpoint = "activation"
observed_result = -0.255

[[record]]
compound = "Cc1ccc2nc(-c3ccccn3)cc(C(=O)Nc3ccc4c(c3)OCO4)c2c1"
endpoint = "activation"
observed_result = 5.01

